tested on: HeLa Kyoto; assay: thermal stability score vs G1/S (z-score of summed log2 fold changes over temperatures); higher = more thermally stable than in G1/S; conditions: cell cycle stage: early G1 (4.5 h after nocodazole release);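 also: synchronized HeLa Kyoto cells, proteins quantified by TMT10plex mass spectrometry, three biological replicates, mitosis taken 0.5 h after nocodazole release, G1/S directly after double thymidine block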
Here the recorded thermal stability score is given for each entry.

| sequence.chain | thermal stability score |
| --- | --- |
| MREYKVVVLGSGGVGKSALTVQFVTGTFIEKYDPTIEDFYRKEIEVDSSPSVLEILDTAGTEQFASMRDLYIKNGQGFILVYSLVNQQSFQDIKPMRDQIVRVKRYEKVPLILVGNKVDLEPEREVMSSEGRALAQEWGCPFMETSAKSKSMVDELFAEIVRQMNYSSLPEKQDQCCTTCVVQ [RAP2C] | 1.5 |
| MLGGSLGSRLLRGVGGSHGRFGARGVREGGAAMAAGESMAQRMVWVDLEMTGLDIEKDQIIEMACLITDSDLNILAEGPNLIIKQPDELLDSMSDWCKEHHGKSGLTKAVKESTITLQQAEYEFLSFVRQQTPPGLCPLAGNSVHEDKKFLDKYMPQFMKHLHYRIIDVSTVKELCRRWYPEEYEFAPKKAASHRALDDISESIKELQFYRNNIFKKKIDEKKRKIIENGENEKTVS [REXO2] | -2.25 |
| MAASEAAVVSSPSLKTDTSPVLETAGTVAAMAATPSARAAAAVVAAAARTGSEARVSKAALATKLLSLSGVFAVHKPKGPTSAELLNRLKEKLLAEAGMPSPEWTKRKKQTLKIGHGGTLDSAARGVLVVGIGSGTKMLTSMLSGSKRYTAIGELGKATDTLDSTGRVTEEKPYDKITQEDIEGILQKFTGNIMQVPPLYSALKKDGQRLSTLMKRGEVVEAKPARPVTVYSISLQKFQPPFFTLDVECGGGFYIRSLVSDIGKELSSCANVLELTRTKQGPFTLEEHALPEDKWTIDDIAQSLEHCSSLFPAELALKKSKPESNEQVLSCEYITLNEPKREDDVIKTC [TRUB1] | 1.48 |
